Tested on: NIH3T3
assayInfo: qHTS assay to identify novel small-molecules to repurpose for Merkel cell carcinoma treatment (AID 1296009); also: nearly all actives have a fitted effect of over 60% in size
assaySetup: MCC and control cell lines, CellTiter-Glo viability, 72 h; at 44.8 µM (top of the series) unless noted
Inconclusive results are not listed. Activity calls are given as the source filed them. Calls follow the shape of the dose curve; as a rule, active = well fitted inhibition curve with a large enough effect; inconclusive = small, poorly fitted or top-dose-only effect; inactive = flat fitted curve, though single readings scatter.
propertyLabel: outcome

Cc1cc(Nc2ncc(Cl)c(Nc3ccccc3S(=O)(=O)C(C)C)n2)c(OC(C)C)cc1C1CCNCC1    inactive
CCC(=O)NS(=O)(=O)c1ccc(-c2c(-c3ccccc3)noc2C)cc1    inactive

----------
Tested on: AS120
assayInfo: qHTS profiling for inhibitors of Plasmodium falciparum proliferation (AID 504749); also: nearly all actives have a fitted effect of over 60% in size
assaySetup: P. falciparum in erythrocytes, SYBR Green DNA, 72 h; series mostly up to 28.7 µM
Records with an inconclusive call do not appear. Activity calls are given as the source filed them. The call rests on the fitted dose curve; in most records, active means well fitted inhibition curve with a large enough effect; inconclusive means small, poorly fitted or top-dose-only effect; inactive means flat fitted curve, though single readings scatter.
Entry note: the call must match one of active, inactive

Each compound tested received a call. Report the one for C#CCOc1ccc2c(C)cc(=O)oc2c1 .
inactive

Each compound tested received a call. Report the one for CCCCCCCCCCCCCCCC(=O)OCC(COC(=O)CCCCCCCCCCCCCCC)OC(=O)CCCCCCCCCCCCCCC .
inactive

Each compound tested received a call. Report the one for IC(I)I .
inactive

Each compound tested received a call. Report the one for CN=C(NC#N)Nc1ccc(C2=NNC(=O)C[C@@H]2C)cc1 .
inactive

Each compound tested received a call. Report the one for COC(C(=O)C(O)C(C)O)C1Cc2cc3cc(OC4CC(OC5CC(O)C(O)C(C)O5)C(O)C(C)O4)c(C)c(O)c3c(O)c2C(=O)C1OC1CC(OC2CC(OC3CC(C)(O)C(O)C(C)O3)C(O)C(C)O2)C(O)C(C)O1 (configuration not stated) .
active

Each compound tested received a call. Report the one for CC(C)(C)C(=O)OCOC(=O)[C@@H]1N2C(=O)[C@@H](N=CN3CCCCCC3)[C@H]2SC1(C)C .
inactive

Each compound tested received a call. Report the one for CCCCC(C)(O)C/C=C/[C@H]1[C@H](O)CC(=O)[C@@H]1CCCCCCC(=O)OC (some centres not stated) .
inactive

Each compound tested received a call. Report the one for CO[C@H]1C[C@@H]2CC[C@@H](C)[C@@](O)(O2)C(=O)C(=O)N2CCCC[C@H]2C(=O)O[C@H]([C@H](C)C[C@@H]2CC[C@@H](OCCO)[C@H](OC)C2)CC(=O)[C@H](C)/C=C(\C)[C@@H](O)[C@@H](OC)C(=O)[C@H](C)C[C@H](C)/C=C/C=C/C=C/1C .
active

Each compound tested received a call. Report the one for CC(=O)Oc1cc(C)c(OC(C)=O)c2ccccc12 .
active

Each compound tested received a call. Report the one for CCCCCCCC(=O)O .
inactive

Each compound tested received a call. Report the one for Nc1ncnc2c1ncn2[C@@H]1O[C@H](COP(=O)(O)OP(=O)(O)OP(=O)(O)O)[C@@H](O)[C@H]1O .
inactive

Each compound tested received a call. Report the one for CC1=C(/C=C/C(C)=C/C=C/C(C)=C/C=C/C=C(C)/C=C/C=C(C)/C=C/C2=C(C)C(=O)CCC2(C)C)C(C)(C)CCC1=O .
inactive

----------
target: ATP-dependent 6-phosphofructokinase (Trypanosoma brucei brucei)
assayInfo: qHTS Assay to Find Inhibitors of T. brucei phosphofructokinase: hit validation (AID 492961)
assaySetup: T. brucei PFK, ADP-Glo luminescence; series mostly up to 51.4 µM
Inconclusive results are not listed. Calls of active or inactive are those of the source. The call rests on the fitted dose curve; in most records, active means well fitted inhibition curve with a large enough effect; inconclusive means small, poorly fitted or top-dose-only effect, or effect the other way; inactive means flat fitted curve, though single readings scatter.
Entry note: the call must match one of true = active, false = inactive

Each compound tested received a call. Report the one for CCN(CC)Cc1cc(Nc2ccnc3cc(Cl)ccc23)ccc1O .
false

Each compound tested received a call. Report the one for CCOc1ccc(N=Nc2ccc(N)cc2N)cc1 .
false

Each compound tested received a call. Report the one for Nc1c(N=Nc2ccc(-c3ccc(N=Nc4cc(S(=O)(=O)O)c5ccccc5c4N)cc3)cc2)cc(S(=O)(=O)O)c2ccccc12 .
false

Each compound tested received a call. Report the one for Cc1ccccc1OCC(O)CNCCOc1ccc(C(N)=O)cc1 (stereo unspecified) .
false

Each compound tested received a call. Report the one for Clc1cc(Cl)c(OCC#CI)cc1Cl .
true

Each compound tested received a call. Report the one for CCOC(=O)C1=C(C)NC(C)=C(C(=O)OCC)C1c1ccccc1C=CC(=O)OC(C)(C)C .
false

Each compound tested received a call. Report the one for CC(C)N=c1cc2n(-c3ccc(Cl)cc3)c3ccccc3nc-2cc1Nc1ccc(Cl)cc1 .
false

Each compound tested received a call. Report the one for O=C(COc1ccc(Cl)cc1)OCCNC12CC3CC(CC(C3)C1)C2 .
false

Each compound tested received a call. Report the one for O=CCCCC=O .
false

Each compound tested received a call. Report the one for Cc1cn([C@H]2C[C@H](O)[C@@H](CO)O2)c(=O)[nH]c1=O .
false

Each compound tested received a call. Report the one for CC1(C)C(C=C(Cl)Cl)C1C(=O)OCc1cccc(Oc2ccccc2)c1 (stereo unspecified) .
false

The reported measurements were obtained from PubChem BioAssay (NCATS).
